# METHOD_DESCRIPTION: Log P calculation (octanol/PBS partition)
# Assay type: physicochemical
# SETUP_CONDITIONS: shake-flask 1-octanol/PBS pH 7.4, equal volumes, vortexed 10 min, centrifuged 5000 rpm 5 min, gamma counter, repeated thrice; read-out: Log P

| COMPOUND | logD |
| --- | --- |
| N[C@@H](CCC(=O)N[C@@H](CS)C(=O)NCC(=O)O)C(=O)O [glutathione, Glutathione, reference compound] | -3.23 |
